Source: ChEMBL document CHEMBL1134495

target: GABA-A receptor; anion channel; test: Binding affinity towards benzodiazepine site in GABAA receptor; assay type: protein-complex assay
// classify(record): look up -Log Ki in ranges low: < 6; mid: ≥ 6 and < 7; high: ≥ 7

sample_smiles	assigned_label
O=c1cc(-c2cccc(Cl)c2)oc2ccc(Cl)cc12	high

Pick a category. Item: O=C(O)[C@H]1O[C@@H](Oc2cc3oc(-c4ccccc4)cc(=O)c3c(O)c2O)[C@H](O)[C@@H](O)[C@@H]1O low

###

target: GABA-A receptor; anion channel; test: Binding affinity towards benzodiazepine site in GABAA receptor; assay type: protein-complex assay
Binary label based on -Log Ki with cut-off 6: below gives Fulfilled, not below gives Not fulfilled.

compound	assigned_label
O=c1cc(-c2ccc(O)cc2)oc2cc(O)c(O)c(O)c12 [SCUTELLAREIN]	Fulfilled

Decide: -Log Ki of O=c1cc(-c2ccccc2F)oc2ccc(Br)cc12 strictly below 6? Not fulfilled

Decide: -Log Ki of O=c1cc(-c2ccc([N+](=O)[O-])cc2)oc2ccc(Br)cc12 strictly below 6? Not fulfilled

Decide: -Log Ki of O=c1cc(-c2ccccc2F)oc2cc(O)cc(O)c12 strictly below 6? Fulfilled

Decide: -Log Ki of O=c1cc(-c2cccc(O)c2)oc2ccc(F)cc12 strictly below 6? Fulfilled

Decide: -Log Ki of O=c1cc(-c2ccccc2)oc2ccc(Br)cc12 [6-BROMOFLAVONE] strictly below 6? Not fulfilled

Decide: -Log Ki of O=c1cc(-c2cccc(Br)c2)oc2ccc(Cl)cc12 strictly below 6? Not fulfilled

Decide: -Log Ki of O=c1cc(-c2cccc(O)c2)oc2ccc(Br)cc12 strictly below 6? Not fulfilled

###

target: GABA-A receptor; anion channel; experiment: Binding affinity towards benzodiazepine site in GABAA receptor; format: protein-complex assay
// classify(record): look up -Log Ki in ranges class 1: < 6; class 2: ≥ 6 and < 7; class 3: ≥ 7

Study these solved cases before continuing.
sample_smiles	assigned_label
O=c1cc(-c2ccccc2F)oc2ccc(Cl)cc12	class 2
O=c1cc(-c2cccc(Cl)c2)oc2ccc(Br)cc12	class 3

Pick a category. Item: O=c1cc(-c2cccc([N+](=O)[O-])c2)oc2ccc(Cl)cc12 class 3

Pick a category. Item: O=c1cc(-c2ccccc2Cl)oc2cc(O)cc(O)c12 class 1

Pick a category. Item: O=c1cc(-c2cccc(F)c2)oc2ccc(Br)cc12 class 3

Pick a category. Item: O=c1cc(-c2ccc(F)cc2)oc2ccccc12 class 1

Pick a category. Item: O=c1cc(-c2cccc([N+](=O)[O-])c2)oc2ccc(Br)cc12 class 3

Pick a category. Item: O=c1cc(-c2cccc([N+](=O)[O-])c2)oc2ccc(F)cc12 class 2

Pick a category. Item: O=c1cc(-c2cccc(Cl)c2)oc2ccc(F)cc12 class 2

Pick a category. Item: O=c1cc(-c2cccc(F)c2)oc2ccccc12 class 1

Pick a category. Item: O=c1cc(-c2ccc(F)cc2)oc2ccc(F)cc12 class 1

Pick a category. Item: COc1ccc(-c2cc(=O)c3cc(Br)ccc3o2)cc1 class 1

Pick a category. Item: O=c1cc(-c2cccc(Br)c2)oc2ccc(Br)cc12 class 3

Pick a category. Item: O=c1cc(-c2cccc(Br)c2)oc2ccccc12 class 2

###

target: GABA-A receptor; anion channel; experiment: Binding affinity towards benzodiazepine site in GABAA receptor; type: protein-complex assay
property_measured: -Log Ki
Just the number.

sample_smiles	-Log Ki
COc1c(O)cc2oc(-c3ccc(O)cc3)cc(=O)c2c1O	6
O=c1cc(-c2cccc(O)c2)oc2ccc(Cl)cc12	6.07

Then there is this compound:
Name the recorded -Log Ki of the item COc1ccc(-c2cc(=O)c3cc(Cl)ccc3o2)cc1 in your answer. 5.9

###

target: GABA-A receptor; anion channel; assay: Binding affinity towards benzodiazepine site in GABAA receptor; type: protein-complex assay
property_measured: -Log Ki
Just the number.

Below: 3 compounds and their reported -Log Ki.
sample_smiles	-Log Ki
O=c1cc(-c2ccccc2)oc2c(Br)c(O)c(Br)c(O)c12	6.15
O=c1cc(-c2cccc(F)c2)oc2ccc(F)cc12	6.04
O=c1cc(-c2cccc(F)c2)oc2ccc(Cl)cc12	6.93

Then there is this compound:
Name the recorded -Log Ki of the item O=c1cc(-c2ccc(F)cc2)oc2ccc(Br)cc12 in your answer. 6.94
